# Study target: T1, VPS4A MIT domain (residues 1–84) (human, UniProt Q9UN37 1-84)
# T1 construct: human VPS4A, MIT domain, residues 1-84 of UniProt Q9UN37; cloned into pOPT3G with an N-terminal GST and a human rhinovirus 3C site; the tag was removed with 3C protease; also called VPS4 MIT domain; source: E. coli T7 Express lysY/Iq, purified (glutathione Sepharose, 3C cleavage, SEC); not shown: GST, N-terminal, cleaved
# T1 sequence (looked up): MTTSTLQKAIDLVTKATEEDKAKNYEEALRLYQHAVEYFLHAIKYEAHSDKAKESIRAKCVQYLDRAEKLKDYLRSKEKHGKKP
# Method description: ITC; titrants (GST-pUL71, GST-CHMP6 or peptides) titrated into VPS4A MIT domain in the cell; 25°C; 50 mM HEPES pH 8, 100 mM NaCl, 0.5 mM TCEP; 19×2 μL or 12×3 μL injections; one-site binding model
# Condition parameters: both partners purified
Metric name: pKd
Formally, pKd is defined as -log10 of the concentration c, with c in mol/L.

Q) Would you kindly share the measured pKd for EQIELPEVPSEPLPEK (domain or fragment, human, UniProt Q96FZ7 166-181, looked up, human CHMP6 MIM2; pGEX4T2, annealed primers pGEX CHMP6 MIM2 fwd and rev; also called GST-tagged CHMP6 MIM2 motif; source: E. coli, purified following bacterial expression; not shown: GST, N-terminal, kept) [GST-CHMP6 MIM2] ?
A) 5.26
